B1: LINE1-mini (parent)
chain: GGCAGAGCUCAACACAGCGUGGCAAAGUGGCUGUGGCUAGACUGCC

- Variants of: B1
- Experimental Details: self-cleavage, relative activity (ratio to wild type); higher = more cleavage; in vitro, sequencing; the parent is a self-cleaving ribozyme

>  <Mutant>
A4C G30C

>  <self-cleavage>
0.07

$$$$
>  <Mutant>
U9A U32C

>  <self-cleavage>
0.13

$$$$
>  <Mutant>
A14U G29A

>  <self-cleavage>
0.98

$$$$
>  <Mutant>
G7C G33A

>  <self-cleavage>
0.06

$$$$
>  <Mutant>
G5U G22U

>  <self-cleavage>
0.18

$$$$
>  <Mutant>
A14U G30C

>  <self-cleavage>
0.14

$$$$
>  <Mutant>
C13G G40U

>  <self-cleavage>
0.08

$$$$
>  <Mutant>
A12G G40C

>  <self-cleavage>
0.1

$$$$
>  <Mutant>
A11G A39U

>  <self-cleavage>
0.05

$$$$
>  <Mutant>
A12C C18U

>  <self-cleavage>
0.04

$$$$
